Please go through the items and note down their Cellular binding assay [RFU].
EXPERIMENTAL_SYSTEM: T1, CD27 expressed on the cell surface (HT1080_CD27 cells) (human, UniProt P26842 20-260)
T1 construct: whole, on cells; also called K562_CD27
T1 sequence (looked up): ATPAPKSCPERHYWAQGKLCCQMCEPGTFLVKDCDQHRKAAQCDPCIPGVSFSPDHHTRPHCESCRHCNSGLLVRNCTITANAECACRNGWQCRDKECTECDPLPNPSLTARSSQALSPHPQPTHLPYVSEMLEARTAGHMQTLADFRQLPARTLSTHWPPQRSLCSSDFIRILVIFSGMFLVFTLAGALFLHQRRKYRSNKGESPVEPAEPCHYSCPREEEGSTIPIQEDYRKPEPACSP
ASSAY_OVERVIEW: cellular binding assay, HT1080_CD27 cells; also: test concentration or dose not given here
Answers are plain numbers, in RFU.

Below, each entry is followed by its recorded Cellular binding assay [RFU] result.
| BINDER | Cellular binding assay [RFU] (RFU) |
| --- | --- |
| P018.S.10.A.F05 (antibody, V domains shown, V regions on human Ig constant parts; also called AB27_181) VH: QSVEESGGRLVTPGTPLTLTCTVSGFSLSGYHMCWVRQAPGKGLQYIGIIGSNGVTYYASWAKSRSTITRNTNENTVTLKMTSLTTEDTATYFCARSSGWGARFNLWGQGTLVTVSS VL: AQVLTQTPASVSAAVGGTVTINCQASQSVYNDNELSWYQQKPGQPPKLLIYKASTLTSGVPLRFSGSGSGTQFTLTISDVQSDDAATYYCLGGGSTPSDSTFGGGTEVVVK | 335 |
| P018.S.05.A.F02 (antibody, V domains shown, V regions on human Ig constant parts; also called AB27_91) VH: QSVEESGGRLVTPGTPLTLTCTVSGFSLNNYGITWVRQAPGKGLEYIGYINYGGIAYYASWVNGRFTISKTSTTVDLKMTSLTAADTATYFCARGYGYYSAGNLWGQGTLVTVSS VL: AQVLTQTPSPVSAAVGGTVTINCQASQSVYDNNYLSWYQQKPGQPPKRLIYDASSLASGVPSRFSGSGSGTQFTLTISGVQSDDAATYYCAGEYSCLSDDCIAFGGGTEVVVK | 472 |

# return Cellular binding assay [RFU] for each item in the list
1. P018.S.06.A.C02 (antibody, V domains shown, V regions on human Ig constant parts; also called AB27_100) VH: QSVEESGGRLVTPGTPLTLTCIVSGIDLSSNAMSWVRQAPGKGLEWIGIIGFAGITYYANWAKGRFTISKTSTTVDLKITSPTTEDTATYFCARAYGDSDGLYNLWGQGTLVTVSS VL: AQVLTQTASSVSAAVGGTVTISCQSSESVYNNNWLGWFQQKPGQPPKLLIYLASTLASGVPSRFKGSGSGTQFTLTISDLESDDAATYYCQGGYSGNIFAFGGGTEVVVN
2. P018.S.09.A.D04 (antibody, V domains shown, V regions on human Ig constant parts; also called AB27_151) VH: QSVEESGGRLVTPGTPLTLTCTVSGFSLSSNAISWVRQAPGKGLEWIAIITHSDNTFYASWAKGRFTISKASTTVDLKVTSPTTEDTATYFCARDGYVSSSGTYMGGYFDLWGQGTLVTVSS VL: DPVLTQTPSPVSAAVGGTVTINCQASQIIYNDKNLAWYQQKPGQPPKLLIYYASTLASGVSSRFKGSASGTQFTFTISGVQSDDAATYYCQGEFSCSSADCIAFGGGTEVVVK
3. P018.S.06.A.D04 (antibody, V domains shown, V regions on human Ig constant parts; also called AB27_103) VH: QSLEESGGRLVKPDETLTLTCTVSGFDLSSYAVVWVRQAPGKGLEWIGYIYGGSGSTWYASWAKGRFTISKTSSTTVDLKMTSLTTEDTATYFCARAYDSGYIGNSFYAFDPWGPGTLVTVSS VL: DIVMTQTPASVSAAVGGTVTIKCQASQTISSTLAWYQQKPGQPPKLLIYSASTLASGVSSRFKGSGSGPEFTLTISDLESADGGTYTCAGYGTVGVTAFGGGTEVVVR
4. P018.S.01.A.E06 (antibody, V domains shown, V regions on human Ig constant parts; also called AB27_18) VH: QSLEESGGDLVKPGASLTLTCTASGIDFSSSYYMCWVRQAPGKGLEWIGCIATGGGNTYYATWAKGRFTFSETSSTTVTLQMTSLTVADTATYFCARTYPSMWYFNLWGPGTLVTVSS VL: DVVMTQTPASVSEPVGGTVTIKCQASQSIGFNLAWYQQKPGQPPNLLIYGVSTLTSGVSSRFKGSGSGTQFTLTISDLESADAATYYCQSFYAGSSAFGGGTEVVVK
5. P018.S.08.A.D01 (antibody, V domains shown, V regions on human Ig constant parts; also called AB27_137) VH: QSVEESGGRLVMPGTPLTLTCTVSGFSLSTYVMGWVRQAPGKGLECIGVIYGGGTIWYASWAKGRFTISKTSTTMDLQITSPTTEDTATYFCARDGSSSGDPGFNLWGQGTLVTVSS VL: DIVMTQTPASVSAAVGGTVTINCQASQSISNWVAWYQQKPGQPPKRLIYKASTLASGVPSRFKGSGSGTEFTLTISDLESADAATYYCQSTGSTAYGRAFGGGTEVVVR

1: 283; 2: 376; 3: 394; 4: 291; 5: 394

# return Cellular binding assay [RFU] for each item in the list
1. P018.S.03.A.F03 (antibody, V domains shown, V regions on human Ig constant parts; also called AB27_54) VH: QSLEESGGRLVTPGGSLTLTCTVSGIDLSSYAMGWVRQAPGKGLEYLGIIYTSNRTHYATWAKGRFTISKTSSTTVDLKATSLTTEDTATYFCGRYGRGSGGYYYGMDLWGPGTLVTVSS VL: DIVMTQTPASVEAAVGGTVTIKCQASQSGDDYCSWYQQKPGQRPKLLIYAASTLASGVPSRFRGSRSGTEYTLTISDLESADAATYYCQNYCAGSGVCLGVAFGGGTEVVVK
2. P018.S.06.A.C06 (antibody, V domains shown, V regions on human Ig constant parts; also called AB27_102) VH: QQQLEESGGGLVKPGGTLTLPCKASGFTISSDYDMCWVRQAPGKGLEWITCILGGSGGSTWYANWAKGRFTISQSSSTTVTLQMTSLTDADTATYFCTRASGFTYFELWGPGTLVTVSS VL: AQVLTQTPSSVSAAVGGTVTINCQASQSVYNNKNLAWYQQKPGQPPKLLIYYASTLASGVSSRFKGSGSGTQFTLTISDVQSDDAATYYCQGEFSCSSSDCFAFGGGTEVVVK

[223, 379]

Given P018.S.06.A.E02 (antibody, V domains shown, V regions on human Ig constant parts; also called AB27_105) VH: QSLEESGGRLVTPGTPLTLTCTVSGIDLNNNAMTWVRQAPGEGLEWIGIISTADTTSYASWTKGRFTISKTSTTVDLKITSPTTEDTATYFCARAAYFSYGYFNLWGQGTLVTVSS VL: DIVMTQTPASVEAAVGGTVTIKCQASQNIGNALAWYQQKSGQPPKLLIYGASTLASGVPSRFKGSGSGTEFTLTISDLESADATTYFCQSYVYSDGNVFGGGTEVVVK , state its recorded Cellular binding assay [RFU].
357

Reference source: patent US20210253725A1
